Cited source for all entries: PubChem BioAssay (NCI)

experiment: NCI Yeast Anticancer Drug Screen. Data for the bub3 strain (AID 167)
condition.label: S. cerevisiae bub3 mutant strain, at 1.2 µM, active compounds read high
Procedure: Growth inhibition of yeast strains with defined genetic alterations is measured as a screen for potential anti-cancer activity. Selected strains with alterations in DNA damage repair or cell cycle control were exposed to compounds and growth inhibition was measured relative to vehicle treated controls. The strain used in this assay is bub3
This is part of a sample that, as a whole, favours compounds with a hit. Of some 79,000 tested, about 15% had one in any assay.
Each entry below carries its recorded growth inhibition.
Report the value in % with no unit label.

// recorded growth inhibition for COC(=O)C1=C(C(=O)OC)CC(n2nnc(C(=O)OC)c2C(=O)OC)=CC1 : -4

Entry O=C1c2ccccc2-c2ccc(N=Cc3ccccc3)cc21 , growth inhibition reported as -6

Recorded result, C=CCNC1=C2C[C@@H](C)C[C@H](OC)[C@H](O)[C@@H](C)/C=C(\C)[C@H](OC(N)=O)[C@@H](OC)/C=C\C=C(/C)C(=O)NC(=CC1=O)C2=O , growth inhibition: -49

growth inhibition in this record for CCC(=O)Nc1ccc(N=NN(C)C)cc1 : -9

Reported growth inhibition ( CO[C@@]1([C@@H](Cl)c2ccccc2)C(=O)N(C)/C(=C\c2ccccc2)C(=O)N1C ) = -1

Looking up Oc1c2c(c(O)c3ccccc13)C1(N=N2)c2ccccc2Oc2ccccc21 , I found its growth inhibition recorded as 8

----------
Each entry below carries its reported growth inhibition.
experiment: NCI Yeast Anticancer Drug Screen. Data for the rad50 strain (AID 155);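 further: 0% = growth of vehicle-only cultures of the same strain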
condition.label: S. cerevisiae rad50 strain growth inhibition; at 50.0 µM; active compounds read high
About 79,000 compounds went through this panel and 15% of them were active in at least one assay; those are over-represented in the sample as a whole. Calls of active or inactive are those of the source. No stated cut-off is given here; in the data, active means growth inhibition above about 70%; inactive means the rest.

Worked cases, answers included:
# compound, growth inhibition
measured = [
    ("O=C1C2=C(c3ccccc31)C(c1ccccc1)N1C(=O)CSC1=N2 (stereo unspecified)", "58.2% (inactive)"),
    ("COC(=O)C(=O)CC(=O)c1cccc(OC)c1", "19.4% (inactive)"),
    ("O=C1/C(=C/c2ccc(Cl)c(Cl)c2)CNC/C1=C\\c1ccc(Cl)c(Cl)c1", "50% (inactive)"),
    ("CC1(C)OC(=O)C(=Cc2ccc([N+](=O)[O-])s2)C(=O)O1", "68.6% (inactive)"),
    ("O=C1C=CC(=Nc2cccc3c2-c2ccccc2C3=O)O1", "99.5% (active)"),
    ("Cn1c(-c2ccc(/C=N\\N3CCN(/N=C/c4ccc(-c5c[n+]6ccsc6n5C)cc4)CC3)cc2)c[n+]2ccsc12", "18% (inactive)"),
]

The value of growth inhibition measured for the compound CCO/C=C1\SC(=S)N(c2ccc(OCC)cc2)C1=O turned out to be 29.7% (inactive)

growth inhibition measured on COc1ccccc1/C=C\C(=O)C1COCN1 (stereo unspecified) = 97.2% (active)

Query C[N+](C)([O-])CCCNc1c2ccccc2nc2cccc([N+](=O)[O-])c12 yields growth inhibition of 86.8% (active)

Field growth inhibition (entry CCCCS(=O)(=O)Nc1ccc(Nc2c3ccccc3nc3ccccc23)c(OC)c1 ) reads 45% (inactive)

Lab note: Cc1cccc2c(NCCCN(C)C)c3c([N+](=O)[O-])ccc(C)c3nc12 gave growth inhibition of 97.8% (active)

For OC(CC(O)(C(F)(F)F)C(F)(F)F)c1ccc(C(O)CC(O)(C(F)(F)F)C(F)(F)F)cc1 (stereo unspecified) the compound record lists growth inhibition as 99% (active)

----------
// reported growth inhibition per item
experiment: NCI Yeast Anticancer Drug Screen. Data for the sgs1 strain (AID 173);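 further: 0% = growth of vehicle-only control cultures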
condition.label: S. cerevisiae sgs1 mutant, at 1.2 µM, active compounds read high
This is part of a sample that, as a whole, favours compounds with a hit. Of some 79,000 tested, about 15% had one in any assay. Activity calls are given as the source filed them. No stated cut-off is given here; in the data, active means growth inhibition above about 70%; inactive means the rest.

Solved entries:
# compound, growth inhibition
rows = [
    ("CCC(/C=C/c1ccccc1)=N\\Nc1ccc(Cl)cc1", "-3% (inactive)"),
    ("CCCCCCCCCCCCCCCCCCN(C)C(COC)COP(=O)([O-])OCC[N+](C)(C)C (stereo unspecified)", "-64% (inactive)"),
    ("C/C(=N/NC(=S)Nc1ccccc1C)c1ccccn1", "-6% (inactive)"),
    ("C/C(=N\\Sc1ccccc1)c1ccccc1O", "1% (inactive)"),
    ("O=S(=O)(c1cccc(C(F)(F)F)c1)N1c2ccccc2-n2cccc2C1c1cccnc1 (stereo unspecified)", "-40% (inactive)"),
]

Next compound, please.
Form: compound = CCOC(=O)Nc1ccc(C)c(NC(=O)OCC)c1 ; growth inhibition = 3% (inactive)

----------
experiment: NCI Yeast Anticancer Drug Screen. Data for the wt2 strain (AID 169);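 further: 0% = growth of vehicle-treated yeast cultures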
condition.label: S. cerevisiae wt2 strain growth inhibition; at 11.0 µM; active compounds read high
This is part of a sample that, as a whole, favours compounds with a hit. Of some 79,000 tested, about 15% had one in any assay.
Listing of recorded growth inhibition by entry.
Dear colleague, please return just the value in %, with no unit written.

// worked examples, growth inhibition included
# molecule, assay.endpoint, meas.value
measured = [
    ("CCCNC(=O)OCc1c(COC(=O)NCCC)c(-c2ccc(Cl)c(Cl)c2)n2c1CCC2", "growth inhibition", -27),
    ("O=C(Nc1cccs1)c1ccccc1", "growth inhibition", -2),
    ("CCC1(O)C(=O)OCc2c1cc1n(c2=O)Cc2cc3c(N)cccc3nc2-1 (stereo not given)", "growth inhibition", -17),
    ("CC(C)Cc1ncc(CCCN=C(N)N)[nH]c1=O", "growth inhibition", 15),
    ("CN(C)CC(CN(C)C)C(=O)/C=C/c1ccc(Cl)cc1Cl", "growth inhibition", 2),
    ("O=C1c2cccc3cccc(c23)C(=O)N1CCNCCN1C(=O)c2cccc3cccc(c23)C1=O", "growth inhibition", 0),
]

Notebook: CNC(=S)N/N=C(/C)CCC/C(C)=N/NC(=S)NC , growth inhibition read as 78

Sure, the documented growth inhibition for CCN(CC)CCCNc1ccc([N+](=O)[O-])c2nc3ccc(OC)cc3c(NCCCN(CC)CC)c12 is 1

growth inhibition measured on O=[N+]([O-])c1ccc2nc(=S)[nH]n2c1 = -2

Looking up C[N+](C)([O-])CCCNc1c2ccccc2nc2cccc([N+](=O)[O-])c12 , I found its growth inhibition recorded as 26

----------
experiment: NCI Yeast Anticancer Drug Screen. Data for the rad50 strain (AID 155);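 further: 0% = growth of vehicle-only cultures of the same strain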
condition.label: S. cerevisiae rad50 strain growth inhibition; at 3.7 µM; active compounds read high
Compounds without any hit were thinned out: in the full panel of roughly 79,000, 15% have a hit.
Below: a set of entries, each annotated with reported growth inhibition.
Note: unit % is implicit; provide only the numeric part.

Worked set:
# compound, growth inhibition, %
rows = [
    ("[N-]=[N+]=NC1(c2ccccc2)C(=O)Nc2ccccc2C1=O (stereo unspecified)", -2),
    ("N#CSCC1COc2ccccc2O1 (stereo unspecified)", 1),
    ("CN(C)CCNCCCNc1c2ccccc2nc2cccc([N+](=O)[O-])c12", 39),
]

Given item CCCCCc1c(CCCC)c(=O)[nH]c2cc(CNCC(OC)OC)ccc12 , the value recorded as its growth inhibition is 19

Form: compound = COc1ccccc1NC(=O)c1ccc(Cl)cc1 ; growth inhibition = 5

// Cc1c(Cl)c(C)c(Cl)c(O)c1Cl : growth inhibition value = -21

----------
experiment: NCI Yeast Anticancer Drug Screen. Data for the rad14 strain (AID 159);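 further: 0% = growth of vehicle-treated control cultures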
condition.label: S. cerevisiae rad14 strain growth inhibition; at 100.0 µM; active compounds read high
Experimental: Growth inhibition of yeast strains with defined genetic alterations is measured as a screen for potential anti-cancer activity. Selected strains with alterations in DNA damage repair or cell cycle control were exposed to compounds and growth inhibition was measured relative to vehicle treated controls. The strain used in this assay is rad14
The panel holds about 79,000 compounds, 15% with a hit somewhere; the sample as a whole holds those more often.
Below: a set of entries, each annotated with reported growth inhibition.
Could you give me the number in %? Just the number is fine.

Below, 3 molecules whose answers are already recorded.
# molecule, endpoint.unit, meas.value
rows = [
    ("CC1=C(C)C(=O)C2=C(OCCO2)C1=O", "%", 71),
    ("CC(/C=C/c1ccc([N+](=O)[O-])o1)=N/N1CC(CN2CCOCC2)OC1=O (centres undefined)", "%", 99),
    ("O=P(C(=S)Nc1c(Cl)cccc1Cl)(c1ccccc1)c1ccccc1", "%", 94),
]

// switching to the query molecule
So, CC(C)(CN1CCCCC1)C(=O)CC(SCCS(=O)(=O)O)c1ccccc1 (centres undefined) ? Its growth inhibition was 39

----------
# growth inhibition per record follows
experiment: NCI Yeast Anticancer Drug Screen. Data for the rad18 strain (AID 177)
condition.label: S. cerevisiae rad18 mutant growth inhibition; at 11.0 µM; active compounds read high
Compounds without any hit were thinned out: in the full panel of roughly 79,000, 15% have a hit.
Expressed in %, but write only the number.

// worked examples, growth inhibition included
# compound, growth inhibition / %
measured = [
    ("CCN(CC)CCNc1ccc2ncn3c4ccc(O)cc4c(=O)c1c23", -11),
    ("CCC(/C=C/c1ccccc1)=N\\Nc1ccc(Cl)cc1", 3),
    ("COC(=O)C1=C(C(=O)OC)CC(n2nnc(C(=O)OC)c2C(=O)OC)=CC1", 0),
    ("CCCCCCCN(CCCCCCC)CC(=O)c1ccc2cc(Cl)c3ccccc3c2c1", 98),
    ("O=C(O)c1ccc2cc(Cl)c3ccccc3c2c1", 19),
    ("CC(C)(N=Nc1ccc(Cl)cc1)[N+](=O)[O-]", 94),
]

Record summary for CCN(CC)C(=S)SC(=S)N(CC)CC : reported growth inhibition = 53

Reported growth inhibition for CCOc1ccc(N)c(S)c1 was 9

For reference, reported growth inhibition for O=C(O)c1ccccc1C(=O)OC1CCc2ccccc2C1 (configuration not stated) stands at -1
